Please go through the items and note down their pKd.
Measured Target: PDGFRβ (Homo sapiens, UniProt P09619)
Construct: made in house
Sequence (P09619 33-1106): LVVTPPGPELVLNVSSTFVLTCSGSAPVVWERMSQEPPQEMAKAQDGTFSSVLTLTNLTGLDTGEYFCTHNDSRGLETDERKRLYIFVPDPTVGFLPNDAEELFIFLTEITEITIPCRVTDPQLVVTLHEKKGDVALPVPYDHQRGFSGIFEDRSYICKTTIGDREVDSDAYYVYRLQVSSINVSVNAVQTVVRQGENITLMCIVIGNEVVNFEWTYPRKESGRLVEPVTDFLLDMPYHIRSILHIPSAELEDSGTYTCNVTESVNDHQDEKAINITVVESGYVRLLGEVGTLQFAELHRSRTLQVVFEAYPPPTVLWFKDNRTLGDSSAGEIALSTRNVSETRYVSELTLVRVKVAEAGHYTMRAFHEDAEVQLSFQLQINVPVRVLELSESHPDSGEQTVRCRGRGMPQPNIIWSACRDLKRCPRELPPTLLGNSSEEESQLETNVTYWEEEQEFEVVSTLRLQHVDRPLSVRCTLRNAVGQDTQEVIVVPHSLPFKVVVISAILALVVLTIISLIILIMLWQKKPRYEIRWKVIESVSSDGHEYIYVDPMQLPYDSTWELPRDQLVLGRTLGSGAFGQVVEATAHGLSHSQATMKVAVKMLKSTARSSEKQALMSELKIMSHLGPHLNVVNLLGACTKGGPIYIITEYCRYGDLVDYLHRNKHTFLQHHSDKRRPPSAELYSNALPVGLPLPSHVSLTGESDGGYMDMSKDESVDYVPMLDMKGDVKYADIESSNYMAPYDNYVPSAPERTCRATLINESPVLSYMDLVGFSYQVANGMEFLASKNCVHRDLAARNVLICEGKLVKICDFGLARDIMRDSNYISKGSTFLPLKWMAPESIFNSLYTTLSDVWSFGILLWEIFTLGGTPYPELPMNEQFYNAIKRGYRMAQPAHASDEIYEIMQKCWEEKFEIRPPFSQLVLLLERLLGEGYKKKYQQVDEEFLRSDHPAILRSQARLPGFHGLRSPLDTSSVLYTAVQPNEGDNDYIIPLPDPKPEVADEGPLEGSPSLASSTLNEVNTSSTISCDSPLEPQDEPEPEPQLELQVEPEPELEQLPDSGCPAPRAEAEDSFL
Protocol Notes: Competition binding assay, PDGFRβ Kd
Run Conditions: competition binding
pKd: −log10 of the molar value.

# query: pKd of entry O[C@@H]1CCCC[C@H]1Nc1nc2ccc(Cn3cnc4cc(Cl)c(Cl)nc43)cc2s1
≥ 7.30

# query: pKd of entry CS(=O)(=O)c1ccc2ncn(Cc3ccc4nc(N[C@@H]5CCCC[C@H]5O)sc4c3)c2c1
< 5.70

# query: pKd of entry C#Cc1ccc2c(c1)ncn2Cc1ccc2nc(N[C@@H]3CCCC[C@H]3O)sc2c1
6.30 to 7.30

# query: pKd of entry O[C@@H]1[C@H](O)CCC[C@H]1Nc1nc2ccc(Cc3cnc4cc(-n5cccn5)ccn34)cc2s1
≥ 7.30

# query: pKd of entry O[C@@H]1[C@H](O)CCC[C@H]1Nc1nc2ccc(Cn3cnc4cc(OC5COC5)ccc43)cc2s1
≥ 7.30

# query: pKd of entry O[C@@H]1CCCC[C@H]1Nc1nc2ccc(Cn3cnc4cc(I)cnc43)cc2s1
≥ 7.30

# query: pKd of entry O[C@@H]1CCCC[C@H]1Nc1nc2ccc(Cn3cnc4cc(-n5cncn5)ccc43)cc2s1
6.30 to 7.30

# query: pKd of entry OC1CCN(c2ccn3c(Cc4ccc5nc(N[C@@H]6CCCC[C@H]6O)sc5c4)cnc3c2)CC1
< 5.70

# query: pKd of entry O[C@@H]1CCCC[C@H]1Nc1nc2ccc(Cc3cnc4cccnn34)cc2s1
≥ 7.30

# query: pKd of entry CS(=O)(=O)c1ccc2ncn(Cc3ccc4nc(N[C@@H]5CCCC[C@H]5O)sc4c3)c2n1
5.70 to 6.30

# query: pKd of entry O[C@@H]1CCCC[C@H]1Nc1nc2ccc(Cn3cnc4cc(OC5COC5)ccc43)cc2s1
6.30 to 7.30

# query: pKd of entry O[C@@H]1CCCC[C@H]1Nc1nc2ccc(Cc3cnc4ccc(Cl)nn34)cc2s1
≥ 7.30

# query: pKd of entry O[C@@H]1CCCC[C@H]1Nc1nc2ccc(Cc3cnc4cnccn34)cc2s1
6.30 to 7.30

# query: pKd of entry CS[C@@H]1CCCC[C@H]1Nc1nc2ccc(Cn3cnc4cc(F)cnc43)cc2s1
≥ 7.30

# query: pKd of entry OCCOc1ccn2c(Cc3ccc4nc(N[C@@H]5CCCC[C@H]5O)sc4c3)cnc2c1
5.70 to 6.30

# query: pKd of entry O[C@@H]1CCCC[C@H]1Nc1nc2ccc(Cc3cnc4sccn34)cc2s1
5.70 to 6.30

# query: pKd of entry O[C@@H]1CCCC[C@H]1Nc1nc2ccc(Cc3cnc4cc(-n5cccn5)ccn34)cc2s1
6.30 to 7.30

# query: pKd of entry O[C@@H]1[C@H](O)CCC[C@H]1Nc1nc2ccc(Cn3cnc4cc(F)cnc43)cc2s1
≥ 7.30

# query: pKd of entry O[C@@H]1[C@H](O)CCC[C@H]1Nc1nc2ccc(Cn3cnc4cc(N5CCOCC5)ccc43)cc2s1
≥ 7.30

# query: pKd of entry O[C@@H]1CCCC[C@H]1Nc1nc2ccc(Cc3cnc4cccc(F)n34)cc2s1
6.30 to 7.30

# query: pKd of entry COc1nc2c(cc1C#N)ncn2Cc1ccc2nc(N[C@@H]3CCCC[C@H]3O)sc2c1
6.30 to 7.30

# query: pKd of entry O[C@@H]1CCCC[C@H]1Nc1nc2ccc(Cc3cnc4ccc(-n5cccn5)cn34)cc2s1
5.70 to 6.30

# query: pKd of entry OCCOc1ccc2c(c1)ncn2Cc1ccc2nc(N[C@@H]3CCCC[C@H]3O)sc2c1
6.30 to 7.30

# query: pKd of entry CON=C(C)c1ccn2c(Cc3ccc4nc(N[C@@H]5CCCC[C@H]5O)sc4c3)cnc2c1
6.30 to 7.30

# query: pKd of entry O[C@@H]1CCCC[C@H]1Nc1nc2ccc(Cc3cnc4cc(-n5ccnn5)ccn34)cc2s1
6.30 to 7.30

# query: pKd of entry O[C@@H]1[C@H](O)CCC[C@H]1Nc1nc2ccc(Cc3cnc4cc(-n5nccn5)ccn34)cc2s1
6.30 to 7.30
